# experimentSummary: Dynamic light scattering of LNPs: Z-average diameter, number average diameter, PDI
# Format: physicochemical
# studyConditions: LNP, sg:mRNA 1:2, N/P 6.0, 50/9/38/3; Table 4, Experiment 105
Below: a set of entries, each annotated with reported Number mean (nm).
Give the number; nm is assumed, so skip it.

Reported Number mean (nm) for CCCCC/C=C\C/C=C\CCCCCCCC(=O)OCC(COC(=O)CCC(OCCCCCCCC)OCCCCCCCC)COC(=O)OCCC1CCCN1C (centres unmarked) [Compound 24] was 72.95

Reported Number mean (nm) for CCCCCCCCOC(CCC(=O)OCC(COC(=O)CCCCCCCCCCC(=O)OCCCCCCC)COC(=O)OCCCN(CC)CC)OCCCCCCCC (centres unmarked) [Compound 61] was 79.73

Reported Number mean (nm) for CCCCCCCCCCOC(=O)CCCCCCCC(=O)OCC(COC(=O)CCC(OCCCCCCCC)OCCCCCCCC)COC(=O)OCCCN(CC)CC (centres unmarked) [Compound 59] was 79.11

Reported Number mean (nm) for CCCCCCCCCC(C)OC(=O)CCCCCCCC(=O)OCC(COC(=O)CCC(OCCCCCCCC)OCCCCCCCC)COC(=O)OCCCN(CC)CC (centres unmarked) [Compound 94] was 80.04

Reported Number mean (nm) for CCCCC/C=C\C/C=C\CCCCCCCC(=O)OCC(COC(=O)CCC(OCCCCCCCC)OCCCCCCCC)COC(=O)OCCCN(CC)CC (centres unmarked) [Compound 1, reference compound] was 73.15

====

# System: mouse TTR gene
# experimentSummary: In vivo editing in mouse liver, sgRNA targeting TTR (G282 or G502), % indel by NGS
# Set-up: species or system CD-1 female mice
# studyConditions: guide G502, i.v. 0.1 mg/kg, sgRNA:Cas9 mRNA 1:2 w/w, experiments 106, 107
Below: a set of entries, each annotated with reported Editing Mean % Indel.
Give the number; % is assumed, so skip it.

In [3]: df
Out[3]:
                                   compound  number
0  CCCCC/C=C\C/C=C\CCCCCCCC(=O)OCC(COC(=O)CCC(OCCCCCCCC)OCCCCCCCC)COC(=O)OCCCN1CCCCC1 (stereo not drawn)    19.6
1  CCCCC/C=C\C/C=C\CCCCCCCC(=O)OCC(COC(=O)CCC(OCCCCCCCC)OCCCCCCCC)COC(=O)NCCN1CCCC1 (stereo not drawn)      12

Read the next record carefully.
Reported Editing Mean % Indel for CCCCCCCC/C=C\CCCCCCCC(=O)OCC(COC(=O)CCC(OCCCCCCCC)OCCCCCCCC)COC(=O)OCCCN(CC)CC (stereo not drawn) was 19.68

====

# experimentSummary: Dynamic light scattering of LNPs: Z-average diameter, number average diameter, PDI
# Type: physicochemical
# studyConditions: LNP, sg:mRNA 1:2, N/P 6.0, 50/9/38/3; Table 4, Experiment 105
Below: a set of entries, each annotated with reported PDI.
Enter a number only.

compound	number
CCCCCCCCCCOC(=O)CCCCCCCC(=O)OCC(COC(=O)CCC(OCCCCCCCC)OCCCCCCCC)COC(=O)OCCCN(CC)CC (centres unmarked) [Compound 59]	0.041
CCCCCCCCOC(CCC(=O)OCC(COC(=O)CCCCCCCCCCC(=O)OCCCCCCC)COC(=O)OCCCN(CC)CC)OCCCCCCCC (centres unmarked) [Compound 61]	0.033
CCCCCCCCCC(C)OC(=O)CCCCCCCC(=O)OCC(COC(=O)CCC(OCCCCCCCC)OCCCCCCCC)COC(=O)OCCCN(CC)CC (centres unmarked) [Compound 94]	0.032
CCCCC/C=C\C/C=C\CCCCCCCC(=O)OCC(COC(=O)CCC(OCCCCCCCC)OCCCCCCCC)COC(=O)OCCC1CCCN1C (centres unmarked) [Compound 24]	0.029

Reported PDI for CCCCC/C=C\C/C=C\CCCCCCCC(=O)OCC(COC(=O)CCC(OCCCCCCCC)OCCCCCCCC)COC(=O)OCCCN(CC)CC (centres unmarked) [Compound 1, reference compound] was 0.033

====

# experimentSummary: Dynamic light scattering of LNPs: Z-average diameter, number average diameter, PDI
# Type: physicochemical
# studyConditions: LNP, sg:mRNA 1:2, N/P about 6, 50/9/38/3; Table 6, Experiments 106-107
// boundary case: Number mean (nm) equal to 70 nm maps to condition not met; strictly smaller maps to condition met

# example entries with known answers
                                   compound     classification
0  CCCCC/C=C\C/C=C\CCCCCCCC(=O)OCC(COC(=O)CCC(OCCCCCCCC)OCCCCCCCC)COC(=O)OCCCN1CCCCC1 (stereo not shown)      condition met
1  CC/C=C\C/C=C\C/C=C\CCCCCCCC(=O)OCC(COC(=O)CCC(OCCCCCCCC)OCCCCCCCC)COC(=O)OCCCN(CC)CC (stereo not shown)  condition not met
2  CCCCCCCC/C=C\CCCCCCCC(=O)OCC(COC(=O)CCC(OCCCCCCCC)OCCCCCCCC)COC(=O)OCCCN(CC)CC (stereo not shown)  condition not met

Please let me know if CCCCC/C=C\C/C=C\CCCCCCCC(=O)OCC(COC(=O)CCC(OCCCCCCCC)OCCCCCCCC)COC(=O)NCCN1CCCCC1 (stereo not shown) shows Number mean (nm) below 70 nm.
condition met

Please let me know if CCCCC/C=C\C/C=C\CCCCCCCC(=O)OCC(COC(=O)CCC(OCCCCCCCC)OCCCCCCCC)COC(=O)NCCN1CCCCCC1 (stereo not shown) shows Number mean (nm) below 70 nm.
condition met

====

# experimentSummary: RNA encapsulation efficiency of LNPs (Ribogreen fluorescence assay)
# Assay type: physicochemical
# studyConditions: LNP, sg:mRNA 1:1, N/P about 6, amine lipid/DSPC/cholesterol/PEG-2k-DMG 50/9/38/3; Table 2, Experiments 2-20
valueType: Encapsulation (%)
Give the number; % is assumed, so skip it.

In [3]: df
Out[3]:
                                   compound          valuetype  number
0  CCCCC/C=C\C/C=C\CCCCCCCC(=O)OCC(COC(=O)CCC(OCCCCCCCC)OCCCCCCCC)COC(=O)NCCCN1CCCC1 (stereo not drawn)  Encapsulation (%)     100

Reported Encapsulation (%) for CCCCCCCCOC(CCC(=O)OCC(COC(=O)CCCCCCCCCCC(=O)OCCCCC)COC(=O)OCCCN(CC)CC)OCCCCCCCC (stereo not drawn) was 97

Reported Encapsulation (%) for CCCCCCCCCC(C)OC(=O)CCCCCCCC(=O)OCC(COC(=O)CCC(OCCCCCCCC)OCCCCCCCC)COC(=O)OCCCN(CC)CC (stereo not drawn) was 99

====

# experimentSummary: Dynamic light scattering of LNPs: Z-average diameter, number average diameter, PDI
# Type: physicochemical
# studyConditions: LNP, sg:mRNA 1:1, N/P about 6, 50/9/38/3; Table 2, Experiments 2-20
valueType: PDI
Enter a number only.

Reported PDI for CCCCC/C=C\C/C=C\CCCCCCCC(=O)OCC(COC(=O)CCC(OCCCCCCCC)OCCCCCCCC)COC(=O)NC(C)CN(CC)CC (stereo not shown) [Compound 44] was 0.025

Reported PDI for CCCCC/C=C\C/C=C\CCCCCCCC(=O)OCC(COC(=O)CCC(OCCCCCCCC)OCCCCCCCC)COC(=O)NC(C)CN(C)C (stereo not shown) [Compound 45] was 0.007

Reported PDI for CCCCC/C=C\C/C=C\CCCCCCCC(=O)OCC(COC(=O)CCC(OCCCCCCCC)OCCCCCCCC)COC(=O)NCC1CCCN1CC (stereo not shown) [Compound 40] was 0.056

Reported PDI for CCCCC/C=C\C/C=C\CCCCCCCC(=O)OCC(COC(=O)CCC(OCCCCCCCC)OCCCCCCCC)COC(=O)OCCCN1CCCCCC1 (stereo not shown) [Compound 23] was 0.068

Reported PDI for CCCCCCCCCCOC(=O)CCCCCCCC(=O)OCC(COC(=O)CCCCCC(=O)OC(CCCCCCCC)CCCCCCCC)COC(=O)CCCN(C)C (stereo not shown) [Compound 82] was 0.038

Reported PDI for CCCCC/C=C\C/C=C\CCCCCCCC(=O)OCC(COC(=O)CCC(OCCCCCCCC)OCCCCCCCC)COC(=O)NCC1CCCN1C (stereo not shown) [Compound 39] was 0.024

Reported PDI for CCCCC/C=C\C/C=C\CCCCCCCC(=O)OCC(COC(=O)CCC(OCCCCCCCC)OCCCCCCCC)COC(=O)N1CCN(CC)CC1 (stereo not shown) [Compound 48] was 0.085

Reported PDI for CCCCCCCCCC(CC)OC(=O)CCCCCCCC(=O)OCC(COC(=O)CCC(OCCCCCCCC)OCCCCCCCC)COC(=O)OCCCN(CC)CC (stereo not shown) [Compound 95] was 0.029

Reported PDI for CCCCCCCCCCOC(=O)CCCCCCCC(=O)OCC(COC(=O)CCC(OCCCCCCCC)OCCCCCCCC)COC(=O)OCC1CCCN(CC)C1 (stereo not shown) [Compound 72] was 0.002

Reported PDI for CCCCC/C=C\C/C=C\CCCCCCCC(=O)OCC(COC(=O)CCC(OCCCCCCCC)OCCCCCCCC)COC(=O)NC1CCCN(CC)C1 (stereo not shown) [Compound 36] was 0.024

Reported PDI for CCCCC/C=C\C/C=C\CCCCCCCC(=O)OCC(COC(=O)CCC(OCCCCCCCC)OCCCCCCCC)COC(=O)NCC1CCCCN1CC (stereo not shown) [Compound 38] was 0.019

Reported PDI for CCCCCC/C=C\COC(=O)CCCCCCCCCCCC(=O)OCC(COC(=O)CCC(OCCCCCCCC)OCCCCCCCC)COC(=O)OCCCN(CC)CC (stereo not shown) [Compound 70] was 0.017

Reported PDI for CCCCCCCCCCOC(=O)CCCCCCCC(=O)OCC(COC(=O)CCC(OCCCCCCCC)OCCCCCCCC)COC(=O)NCCN(CC)CC (stereo not shown) [Compound 73] was 0.008

Where these numbers come from: patent US20220402862A1
